target: SEAP-His (Homo sapiens, UniProt P05187); test: Selectivity ELISA of humanized antibodies for human Eph receptor; format: binding; conditions: coated protein 1 nM
Sequence (P05187 23-511 limits assumed): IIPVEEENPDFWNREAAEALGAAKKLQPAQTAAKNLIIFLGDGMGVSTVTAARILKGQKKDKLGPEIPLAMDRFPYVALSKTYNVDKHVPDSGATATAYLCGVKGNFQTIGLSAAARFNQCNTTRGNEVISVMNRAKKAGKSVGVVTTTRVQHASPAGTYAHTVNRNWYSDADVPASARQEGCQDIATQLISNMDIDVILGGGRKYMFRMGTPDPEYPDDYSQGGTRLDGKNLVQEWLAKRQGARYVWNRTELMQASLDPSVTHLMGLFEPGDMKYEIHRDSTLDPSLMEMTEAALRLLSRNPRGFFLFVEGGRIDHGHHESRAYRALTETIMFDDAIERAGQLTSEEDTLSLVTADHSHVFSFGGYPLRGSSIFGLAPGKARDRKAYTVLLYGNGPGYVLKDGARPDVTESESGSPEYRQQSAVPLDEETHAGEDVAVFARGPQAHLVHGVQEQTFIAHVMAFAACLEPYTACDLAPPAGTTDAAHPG
Below: a set of entries, each annotated with reported SEAP-His: absorbance at 450 nm, percentage with respect to hEphA4-SEAP-His as 100%.
# output: bare number, implied unit %

MOLECULE | RECORDED RESULT
88 (antibody, V domains shown, constant regions without entry; synthetic humanized antibody light chain variable region sequence; synthetic humanized antibody heavy chain variable region sequence) VL: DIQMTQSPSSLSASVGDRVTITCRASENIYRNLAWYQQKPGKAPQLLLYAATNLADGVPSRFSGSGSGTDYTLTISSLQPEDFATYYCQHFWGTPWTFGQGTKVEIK VH: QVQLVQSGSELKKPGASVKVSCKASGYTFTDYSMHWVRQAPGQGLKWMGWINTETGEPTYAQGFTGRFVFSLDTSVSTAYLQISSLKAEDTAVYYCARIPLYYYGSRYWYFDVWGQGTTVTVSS | 6.1

Incoming: // lookup SEAP-His: absorbance at 450 nm, percentage with respect to hEphA4-SEAP-His as 100% for 69 (antibody, V domains shown, synthetic humanized antibody heavy chain variable region sequence; synthetic humanized antibody light chain variable region sequence) VH: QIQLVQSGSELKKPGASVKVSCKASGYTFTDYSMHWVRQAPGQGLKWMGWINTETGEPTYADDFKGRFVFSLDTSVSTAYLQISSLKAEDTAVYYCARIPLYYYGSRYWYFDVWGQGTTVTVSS VL: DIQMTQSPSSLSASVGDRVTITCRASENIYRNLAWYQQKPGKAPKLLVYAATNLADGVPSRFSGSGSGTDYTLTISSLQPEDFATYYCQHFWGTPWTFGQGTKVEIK
Outgoing: 6.1

Incoming: Now give it for 82 (antibody, V domains shown, constant regions without entry; synthetic humanized antibody light chain variable region sequence; synthetic humanized antibody heavy chain variable region sequence) VL: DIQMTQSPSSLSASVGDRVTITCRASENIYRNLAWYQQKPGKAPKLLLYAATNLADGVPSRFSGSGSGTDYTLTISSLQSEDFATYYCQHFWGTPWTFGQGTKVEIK VH: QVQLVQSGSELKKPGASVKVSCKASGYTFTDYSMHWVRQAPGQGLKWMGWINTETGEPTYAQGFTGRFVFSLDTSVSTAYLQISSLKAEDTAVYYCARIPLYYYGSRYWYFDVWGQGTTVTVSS too.
Outgoing: 5.9

Incoming: What would you report for 159 (antibody, V domains shown, synthetic humanized antibody heavy chain variable region sequence; synthetic humanized antibody light chain variable region sequence) VH: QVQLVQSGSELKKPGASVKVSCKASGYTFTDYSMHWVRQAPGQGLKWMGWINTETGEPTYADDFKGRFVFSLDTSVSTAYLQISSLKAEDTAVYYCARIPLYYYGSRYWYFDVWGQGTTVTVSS VL: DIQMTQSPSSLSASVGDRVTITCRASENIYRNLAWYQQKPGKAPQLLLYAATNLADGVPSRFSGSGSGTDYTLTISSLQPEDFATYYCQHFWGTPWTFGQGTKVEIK ?
Outgoing: 5.3
